Entry source: PubChem BioAssay AID1205

assay protocol: DSSTox (CPDBAS) Carcinogenic Potency Database Summary MultiCellCall Results
condition label: animal carcinogenicity bioassays, multi-cell call summary
Active and inactive are the calls of the source.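 The calls were made as follows: active = tumour findings in long-term animal cancer tests in more than one sex, species or organ; inactive = no tumour finding and more than one negative test.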
Outcomes: t (active), f (inactive)

> print(dat)
                                    molecule  class.assignment
 1  CCN(Cc1cccc(S(=O)(=O)O)c1)c1ccc(C(=C2C=CC(=[N+](CC)Cc3cccc(S(=O)(=O)[O-])c3)C=C2)c2ccccc2)cc1                 t
 2                           C[N+](C)(C)CCCl                 f
 3  C/C(=C(\CCOC(=O)c1ccccc1)SC(=O)c1ccccc1)N(C=O)Cc1cnc(C)nc1N                 f
 4       Cc1cc(C)nc(NS(=O)(=O)c2ccc(N)cc2)n1                 t
 5                             C=C(C)C(=O)OC                 f
 6                      O=c1ccc(=O)[nH][nH]1                 f
 7                                O=NN1CCOC1                 t
 8                          O=NN1CC(=O)NC1=O                 t
 9                            c1ccc2ccccc2c1                 t
10  C/C=C(/C)C(=O)O[C@H]1CCN2CC=C(COC(=O)[C@](O)([C@H](C)OC)C(C)(C)O)[C@H]12                 t
11                         CN(CCc1ccccc1)N=O                 t
12      CC(O)COC(C)(C)C (stereo unspecified)                 t
13                    O=C/C(Cl)=C(/Cl)C(=O)O                 f
14        O=S(=O)(Oc1ccc(Cl)cc1)c1ccc(Cl)cc1                 f
15                             O=C1CCC(=O)O1                 f
16                   CCC(Br)(CC)C(=O)NC(N)=O                 f
17                               C=CC(=O)OCC                 t
18            O=C1O[C@H]([C@H](O)CO)C(O)=C1O                 f
19                 Nc1ccc2c(n1)[nH]c1ccccc12                 t
20  ClC1C2(Cl)C3C4C5OC5C5C4C1(Cl)C(Cl)(C53)C2(Cl)Cl (stereo unspecified)                 f
21                                 C=C(Cl)Cl                 t
22             CS(=O)(=O)OCCCNCCCOS(C)(=O)=O                 f
23                      CC(C)(C)c1cc(O)ccc1O                 f
24                           Cc1cccc2cccnc12                 f
25                         CCCCCCCCCCN(C)N=O                 t
26                        [Cd+2].[Cl-].[Cl-]                 t
27               Nc1ccc(-c2ccc(N)c(N)c2)cc1N                 t
28                 Nc1ccc(N=Nc2ccccc2)c(N)n1                 t
29                           Cc1cccc2ccccc12                 f
30                                 O=C(O)CCl                 f
31  CN(C)C(=O)NC1CC2CC1C1CCCC21 (stereo unspecified)                 f

----------
assay protocol: DSSTox (CPDBAS) Carcinogenic Potency Database Summary MultiCellCall Results
condition label: animal carcinogenicity bioassays, multi-cell call summary
The source made the active and inactive calls.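 Rule for the calls: active = tumour findings in long-term animal cancer tests in more than one sex, species or organ; inactive = no tumour finding and more than one negative test.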
Outcomes: y for active, n for inactive

compound	class assignment
Nc1ccccc1C(=O)O	n
CN1CCC[C@H]1c1cccnc1	n
CC(Cl)Cl	n
Cc1cc(Cl)ccc1N	y
CCCOC(=O)C1c2cc3c(cc2CC(C)C1C(=O)OCCC)OCO3 (stereo unspecified)	n
Cc1cc2c(nc1N)[nH]c1ccccc12	y
COC(=O)C(c1ccccc1)C1CCCCN1N=O (stereo unspecified)	n
COc1cc(NC(=O)C(N=Nc2ccc(-c3ccc(N=NC(C(C)=O)C(=O)Nc4cc(OC)c(Cl)cc4OC)c(Cl)c3)cc2Cl)C(C)=O)c(OC)cc1Cl (stereo unspecified)	n
Nc1ccccc1N	y
C=Cc1ccc(C)cc1	n
CC(C)C/C=N/N(C)C=O	y
C#C[C@]1(OC(C)=O)CC[C@H]2[C@@H]3CCC4=C[C@@H](OC(C)=O)CC[C@@H]4[C@H]3CC[C@@]21C	n
CCCN(N)C=O	y
O=NN1CCN(N=O)CC1	y
O=S(=O)(O)c1cc(S(=O)(=O)O)c2c(N=Nc3ccccc3)c(O)ccc2c1	n
C=CCc1ccc(OC)c(OC)c1	y
CCOP(=S)(OCC)Oc1ccc([N+](=O)[O-])cc1	n
Cc1ccccc1N	y
CCN=[N+](C)[O-]	y
C=CC1=C(C)C2=CC3=NC(=C(CC(=O)[O-])C4=NC(=C(C)C4=C([O-])[O-])C=c4[n-]c(c(C)c4CC)=CC1=N2)[C@@H](CCC(=O)[O-])[C@@H]3C.[Cu+2].[Na+].[Na+].[Na+]	n
O=[N+]([O-])c1cc([N+](=O)[O-])c(Cl)c(Cl)c1Cl	n
CCNC(=S)NCC	y
ClC(Cl)Cl	y
Cc1c(N)cccc1N	n
C1COCCO1	y
O=[N+]([O-])c1ccc2c3c(cccc13)CC2	y
O=NN(CCO)C(=O)NCCCl	y
CCCCCCCC/C=C\CCCCCCCC(=O)O	n
CC(=O)N(O)c1ccc2c(c1)Cc1ccccc1-2	y
CC(O)CCl (stereo unspecified)	n
F	n
O=[N+]([O-])c1ccc2nc[nH]c2c1	y
CC(C)NCC(O)COc1cccc2ccccc12 (stereo unspecified)	n
CN[C@@H](C)[C@H](O)c1ccccc1	n
Cc1cc(Cc2ccc(N)c(C)c2)ccc1N	y
CCCN(CCC)c1c([N+](=O)[O-])cc(C(F)(F)F)cc1[N+](=O)[O-]	y
Nc1ccc(-c2ccc(F)cc2)cc1	y
CCOP(=S)(OCC)SC1OCCOC1SP(=S)(OCC)OCC (stereo unspecified)	n
Clc1ccc(-c2ccc(Cl)c(Cl)c2Cl)c(Cl)c1Cl	y
C=CCN(CC(C)=O)N=O	y
CCC(C)c1cc([N+](=O)[O-])cc([N+](=O)[O-])c1O (stereo unspecified)	n
O=NN(CCO)CCO	y
ClC(Cl)(Cl)Cl	y
Cc1cc(N=Nc2c(O)ccc3ccccc23)c(S(=O)(=O)O)cc1Cl	y
NNc1ccccc1	y
ClCCl	y
Cc1cn([C@H]2C[C@H](N=[N+]=[N-])[C@@H](CO)O2)c(=O)[nH]c1=O	y
NC(=S)Nc1cccc2ccccc12	n
CCN(N)C=O	y
COc1ccc(C(=O)/C(Br)=C\C(=O)O)cc1	y
C/C=C/c1ccc2c(c1)OCO2	n
CS(=O)(=O)c1ccc([C@@H](O)[C@@H](CO)NC(=O)C(Cl)Cl)cc1	n
c1ccc2c(c1)cc1ccc3cccc4ccc2c1c34	y
O=C1OC(c2ccc(O)cc2)(c2ccc(O)cc2)c2ccccc21	y
CCCCC1(COC(=O)CCC(=O)O)C(=O)N(c2ccccc2)N(c2ccccc2)C1=O	n
CN(C)CNc1nnc(/C=C/c2ccc([N+](=O)[O-])o2)o1	y

----------
assay protocol: DSSTox (CPDBAS) Carcinogenic Potency Database Summary MultiCellCall Results
condition label: animal carcinogenicity bioassays, multi-cell call summary
The source made the active and inactive calls.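 The calls were made as follows: active = tumour findings in long-term animal cancer tests in more than one sex, species or organ; inactive = no tumour finding and more than one negative test.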
quantity name: outcome

item smiles	assay result
CN1CCCC1=O	active; multisex active
CC1(C)COC1=O	active; multisex active

----------
assay protocol: DSSTox (CPDBAS) Carcinogenic Potency Database Summary MultiCellCall Results
condition label: animal carcinogenicity bioassays, multi-cell call summary
Activity calls are given as the source filed them.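 How the source made its calls: active means tumour findings in long-term animal cancer tests in more than one sex, species or organ; inactive means no tumour finding and more than one negative test.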
Outcomes: label 1 (active), label 0 (inactive)

> print(dat)
                                    molecule  class.assignment
 1                          CC(=O)CN(CCO)N=O           label 1
 2  CN(N=O)C(=O)N[C@@H]1[C@@H](O)[C@H](O)[C@@H](CO)O[C@@H]1O           label 1
 3                                    CCCCCl           label 0
 4             Cc1c(N)nc(C)c2c1[nH]c1ccccc12           label 1
 5      CC(CCl)OC(C)CCl (stereo unspecified)           label 1
 6                              NNCCc1ccccc1           label 1
 7          CC(O)C(=O)O (stereo unspecified)           label 0
 8  COC1=CC(=O)C[C@@H](C)[C@]12Oc1c(Cl)c(OC)cc(OC)c1C2=O           label 1
 9                          S=C(S)NCCNC(=S)S           label 0
10                            O=C(O)c1cccnc1           label 0
11                           ClC(Cl)=C(Cl)Cl           label 1
12    O=C(O)c1ccc(N=Nc2ccc(O)c(C(=O)O)c2)cc1           label 0
13                          NC(=O)N(CCCO)N=O           label 1
14                                 ClC(Cl)Br           label 1
15                                   C=C(F)F           label 0
16  O=C(O)[C@@H]1[C@H](C(=O)O)[C@@]2(Cl)C(Cl)=C(Cl)[C@]1(Cl)C2(Cl)Cl           label 1
17  CCCCC(CC)COC(=O)CCCCC(=O)OCC(CC)CCCC (stereo unspecified)           label 1
18          Nc1nnc(-c2ccc([N+](=O)[O-])o2)o1           label 1
19  O=C1CN(/N=C/c2ccc([N+](=O)[O-])o2)C(=O)N1           label 1
20                                N#CN=C(N)N           label 0
21       CC(N)Cc1ccccc1 (stereo unspecified)           label 0
22              C=CCOC(=O)c1ccccc1C(=O)OCC=C           label 0
23                          O=C/C=C/c1ccccc1           label 0
24                   CC(=O)CN(N=O)C(=O)NCCCl           label 1
25                        S=c1[nH]c2ccccc2s1           label 1
26                                       CBr           label 0
27                            NC(=O)c1ccncc1           label 0
28                  COc1cc(N)ccc1N=Nc1ccccc1           label 0
29                 O=C(O)/C=C/c1ccc(O)c(O)c1           label 1
30  ClC1=C(Cl)C2(Cl)C3C(Cl)C=CC3C1(Cl)C2(Cl)Cl (stereo unspecified)           label 1
31          CCOP(=S)(OCC)Oc1cc(C)nc(C(C)C)n1           label 0
